Values from ChEMBL document CHEMBL1141643

- assay-info: Inhibition of HCV 1a RNA dependent RNA polymerase
- Design: species or system Hepacivirus hominis
Examples of compounds with documented pIC50 follow.
Would you please state pIC50, meaning minus log10 of the concentration in mol/L, as a bare number?

CC(C)CCC1(C)C(=O)C(C2=NS(=O)(=O)c3cc(NS(C)(=O)=O)ccc3N2)=C(O)c2ccccc21 (centres undefined): 8.15

[Q] Please list pIC50 recorded for the compound CCCC1(C)C(=O)C(C2=NS(=O)(=O)c3cc(NS(C)(=O)=O)ccc3N2)=C(O)c2ccccc21 (centres undefined)
[A] 7.70

[Q] Please list pIC50 recorded for the compound CCCCC1(C)C(=O)C(C2=NS(=O)(=O)c3cc(NS(C)(=O)=O)ccc3N2)=C(O)c2ccccc21 (centres undefined)
[A] 7.82

[Q] Please list pIC50 recorded for the compound CC1(CCCC2CCCCC2)C(=O)C(C2=NS(=O)(=O)c3cc(NS(C)(=O)=O)ccc3N2)=C(O)c2ccccc21 (centres undefined)
[A] 6.10

[Q] Please list pIC50 recorded for the compound CC(C)(C)CCCCC1(C)C(=O)C(C2=NS(=O)(=O)c3cc(NS(C)(=O)=O)ccc3N2)=C(O)c2ccccc21 (centres undefined)
[A] 6.86

[Q] Please list pIC50 recorded for the compound CCC1(CCC(C)C)C(=O)C(C2=NS(=O)(=O)c3cc(NS(C)(=O)=O)ccc3N2)=C(O)c2ccccc21 (centres undefined)
[A] 7.77

[Q] Please list pIC50 recorded for the compound CC1(CC2CCCCC2)C(=O)C(C2=NS(=O)(=O)c3cc(NS(C)(=O)=O)ccc3N2)=C(O)c2ccccc21 (centres undefined)
[A] 7.89

[Q] Please list pIC50 recorded for the compound CC(C)(C)CCC1(C)C(=O)C(C2=NS(=O)(=O)c3cc(NS(C)(=O)=O)ccc3N2)=C(O)c2ccccc21 (centres undefined)
[A] 8.00

[Q] Please list pIC50 recorded for the compound CCCC1(CCC)C(=O)C(C2=NS(=O)(=O)c3cc(NS(C)(=O)=O)ccc3N2)=C(O)c2ccccc21
[A] 7.00
